Data origin: PubChem BioAssay (NCI)

growth overview
Tested on: PC-3 prostate
Assay: NCI-60 one-dose screen, 48 h (100 = growth as untreated, 0 = no growth, -100 = all killed)
Conditions: 10 µM unless noted
The panel holds about 83,000 compounds, 20% with a hit somewhere; the sample as a whole holds those more often.
quantity_measured: growth (%)

compound | target_desc | endpoint_unit | experimental_result
CCCCCCCCCCCCCCCCCC(=O)Nc1ccc(O)cc1 | PC-3 prostate | % | 66.6
Cn1c2ccccc2c2ccccc21 | PC-3 prostate | % | 105
COc1ccc(-c2nc(SCC(C)C)nc(Nc3ccccc3)c2C#N)cc1 | PC-3 prostate | % | 86.9
O=C(N/N=C/c1ccccc1Cl)c1cccc2ccccc12 | PC-3 prostate | % | 99.6
COc1ccccc1CNCCCN1C(=O)c2ccc3c4c(ccc(c24)C1=O)C(=O)N(CCCNCc1ccccc1OC)C3=O | PC-3 prostate | % | -59.9
O=S(=O)(Cc1cccc2c(CS(=O)(=O)c3ccc(Cl)cc3)cccc12)c1ccc(Cl)cc1 | PC-3 prostate | % | 92
COc1cc(NC(=O)CSc2nc3ccc(Cl)cc3c(=O)n2-c2ccc(F)cc2)cc(OC)c1OC | PC-3 prostate | % | 73
CCCCCCCCCCCCOC(=N)N(C)C | PC-3 prostate | % | 91.4
COc1ccc(Cn2cc3c(c2-c2ccccc2)CCc2cnoc2-3)cc1OC | PC-3 prostate | % | 26.5
CCCC[N+](C)(N)CCCC | PC-3 prostate | % | 90.5
COC(=O)c1c[n+]([O-])ccc1OC | PC-3 prostate | % | 99.5
O=c1[nH]c2cc(O)ccc2n2cc3c(F)cccc3c12 | PC-3 prostate | % | 46.4
Cc1nc(NC(=S)Nc2ccc(F)cc2)sc1C(=O)NNC(=S)Nc1ccc(F)cc1 | PC-3 prostate | % | 52.1
COc1cc2oc(-c3ccc(NC(=O)c4ccccc4)cc3)cc(=O)c2c(OC)c1OC | PC-3 prostate | % | 71.7
Cc1ccc(S(=O)(=O)NC(CCC(=O)Nc2ccccc2)C(=O)Nc2ccccc2)cc1 (stereo unspecified) | PC-3 prostate | % | -10.4
CCCNC(=O)Oc1ccc(/C(=C(/C)Cc2ccc(OC)cc2)c2ccc(OCCN3CCCCC3)cc2)cc1 | PC-3 prostate | % | 77
Cc1ncc(C(=O)Nc2ccc(CN3CCN(C)CC3)c(C(F)(F)F)c2)cc1C#Cc1cnc(NC2CC2)c2ncccc12 | PC-3 prostate | % | -66.9
CCC(C)(C)c1ccc(OCCCCCCN2CCNCC2)cc1 | PC-3 prostate | % | 64.3
COc1cc(-c2nn(-c3ccc(NC(=O)c4ccc(Cl)c(Cl)c4)cc3)cc2-c2ccncc2)ccc1Cl | PC-3 prostate | % | 68.6
COC(=O)c1ccc2[nH]c(O)c(C(=Nc3ccc(N(C)C(=O)CN4CCN(C)CC4)cc3)c3ccc4c(c3)OCO4)c2c1 | PC-3 prostate | % | 19.3
CCC(CCCN1C(=O)c2ccccc2C1=O)Nc1cc(OC)cc2c(C)ccnc12 (stereo unspecified) | PC-3 prostate | % | 89.1
